molecular target: dopamine 2L receptors (Homo sapiens); assay: Competition binding assay (dopamine 2L receptors), [3H]methylspiperone; parameters: expressed in transfected cells; details: [3H]methylspiperone competition, HEK 293 membranes expressing D2L; read-out: IC50
Sequence (P14416 whole entry): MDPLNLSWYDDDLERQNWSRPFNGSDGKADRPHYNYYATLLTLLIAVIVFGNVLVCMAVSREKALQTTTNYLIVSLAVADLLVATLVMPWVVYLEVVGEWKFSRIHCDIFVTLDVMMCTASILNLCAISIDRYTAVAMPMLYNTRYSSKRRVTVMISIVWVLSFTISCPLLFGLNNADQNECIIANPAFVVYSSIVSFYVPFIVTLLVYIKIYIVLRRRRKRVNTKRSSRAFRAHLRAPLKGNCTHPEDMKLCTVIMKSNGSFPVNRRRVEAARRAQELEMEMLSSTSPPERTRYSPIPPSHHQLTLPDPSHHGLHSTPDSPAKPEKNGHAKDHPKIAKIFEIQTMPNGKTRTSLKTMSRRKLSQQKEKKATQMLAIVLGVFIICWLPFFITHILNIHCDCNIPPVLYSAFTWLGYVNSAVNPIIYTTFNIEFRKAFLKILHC
Note to self: IC50 under 3 µM means Yes, ties and anything higher get No.

Worked examples follow.
| Compound | Target desc | Discrete label |
| --- | --- | --- |
| CCN(CCNC(=O)c1cc(Cl)c(N)cc1OC)CCOCCOC [mPEG2-N-Metoclopramide] | dopamine 2L receptors (Homo sapiens) | Yes |
| CCN(CC)CCNC(=O)c1cc(Cl)c(N)cc1OC [Metoclopramide, reference compound] | dopamine 2L receptors (Homo sapiens) | Yes |
| CCN(CCNC(=O)c1cc(Cl)c(N)cc1OC)CCOCCOCCOCCOCCOC [mPEG5-N-Metoclopramide] | dopamine 2L receptors (Homo sapiens) | No |
| CCN(CCNC(=O)c1cc(Cl)c(N)cc1OC)CCOCCOCCOCCOCCOCCOCCOC [mPEG7-N-Metoclopramide] | dopamine 2L receptors (Homo sapiens) | No |

Query: Threshold test, IC50 < 3 µM: CCN(CCNC(=O)c1cc(Cl)c(N)cc1OC)CCOCCOCCOCCOCCOCCOC [mPEG6-N-Metoclopramide]
Response: No

Query: Likewise for CCN(CCNC(=O)c1cc(Cl)c(N)cc1OC)CCOC [mPEG1-N-Metoclopramide] ?
Response: Yes

Query: Again, but for CCN(CCNC(=O)c1cc(Cl)c(N)cc1OC)CCOCCOCCOCCOCCOCCOCCOCCOCCOC [mPEG9-N-Metoclopramide]
Response: No

Query: Further, for CCN(CCNC(=O)c1cc(Cl)c(N)cc1OC)CCOCCOCCOCCOC [mPEG4-N-Metoclopramide] ?
Response: No

Query: Please answer likewise for CCN(CCNC(=O)c1cc(Cl)c(N)cc1OC)CCOCCOCCOC [mPEG3-N-Metoclopramide]
Response: No

Query: Would you kindly repeat that for CCN(CCNC(=O)c1cc(Cl)c(N)cc1OC)CCOCCOCCOCCOCCOCCOCCOCCOC [mPEG8-N-Metoclopramide] ?
Response: No

---

A collection of molecules and their measured Cmax
experiment: in vivo; conditions: male, Sprague Dawley, rat, plasma, po, 2.5 mg/kg
Field: value (include unit after the number)

| Molecule | Cmax |
| --- | --- |
| CCN(CC)CCNC(=O)c1cc(Cl)c(N)cc1OC [Metoclopramide, reference compound] | 166 ng/mL |
| CCN(CCNC(=O)c1cc(Cl)c(N)cc1OC)CCOCCOCCOCCOC [mPEG4-N-Metoclopramide] | 16.6 ng/mL |

Then this molecule:
Query: So what's the measured Cmax for this one? CCN(CCNC(=O)c1cc(Cl)c(N)cc1OC)CCOC [mPEG1-N-Metoclopramide]
Response: 33.2 ng/mL

---

biological target: dopamine 2S receptor (Homo sapiens); construct: host or cells: CHO-K1 (PathHunter eXpress β-arrestin cells); assay: β-Arrestin functional assay (dopamine), antagonist mode; assay type: cell-based; conditions: IC50 relative to metoclopramide, D2S β-arrestin
Sequence (P14416 1-414 isoform P14416-2): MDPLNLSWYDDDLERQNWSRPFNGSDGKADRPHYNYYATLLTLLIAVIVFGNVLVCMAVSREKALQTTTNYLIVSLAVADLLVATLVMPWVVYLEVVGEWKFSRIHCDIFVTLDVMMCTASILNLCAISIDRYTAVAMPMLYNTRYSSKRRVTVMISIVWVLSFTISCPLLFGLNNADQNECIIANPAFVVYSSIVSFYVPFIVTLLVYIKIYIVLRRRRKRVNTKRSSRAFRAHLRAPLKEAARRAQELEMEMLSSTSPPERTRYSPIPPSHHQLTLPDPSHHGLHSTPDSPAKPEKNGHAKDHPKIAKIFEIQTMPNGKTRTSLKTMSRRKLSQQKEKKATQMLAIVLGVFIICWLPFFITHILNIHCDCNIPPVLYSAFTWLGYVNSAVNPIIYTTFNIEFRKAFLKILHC
Group membership follows Fold-change Relative to Parent per the scheme b0 = under 20, b1 = from 20 up to 70, b2 = 70 and over

See these solved cases before continuing.
| Compound | Discrete label |
| --- | --- |
| CCN(CCNC(=O)c1cc(Cl)c(N)cc1OC)CCOCCOCCOCCOCCOCCOCCOC [mPEG7-N-Metoclopramide] | b2 |
| CCN(CCNC(=O)c1cc(Cl)c(N)cc1OC)CCOCCOCCOCCOCCOCCOCCOCCOC [mPEG8-N-Metoclopramide] | b1 |
| CCN(CCNC(=O)c1cc(Cl)c(N)cc1OC)CCOCCOCCOC [mPEG3-N-Metoclopramide] | b1 |

Query: Could you place CCN(CCNC(=O)c1cc(Cl)c(N)cc1OC)CCOCCOCCOCCOCCOC [mPEG5-N-Metoclopramide] in its proper category? Many thanks.
Response: b1

Query: Consider next the compound CCN(CCNC(=O)c1cc(Cl)c(N)cc1OC)CCOCCOCCOCCOCCOCCOC [mPEG6-N-Metoclopramide] in the same way.
Response: b1

Query: Consider next the compound CCN(CCNC(=O)c1cc(Cl)c(N)cc1OC)CCOCCOC [mPEG2-N-Metoclopramide] in the same way.
Response: b0

Query: Also, CCN(CCNC(=O)c1cc(Cl)c(N)cc1OC)CCOCCOCCOCCOCCOCCOCCOCCOCCOC [mPEG9-N-Metoclopramide] please.
Response: b2

Query: // query: CCN(CCNC(=O)c1cc(Cl)c(N)cc1OC)CCOCCOCCOCCOC [mPEG4-N-Metoclopramide]
Response: b1

Query: Ok, now CCN(CCNC(=O)c1cc(Cl)c(N)cc1OC)CCOC [mPEG1-N-Metoclopramide]
Response: b0
